# target_or_test_system: Ba/F3 cells TPM3-TRKA (Homo sapiens, UniProt P04629)
# Construct: the other entry of the earlier key: TPM3 (P06753, Tropomyosin alpha-3 chain)
# Sequence (P04629 510-796 limits assumed): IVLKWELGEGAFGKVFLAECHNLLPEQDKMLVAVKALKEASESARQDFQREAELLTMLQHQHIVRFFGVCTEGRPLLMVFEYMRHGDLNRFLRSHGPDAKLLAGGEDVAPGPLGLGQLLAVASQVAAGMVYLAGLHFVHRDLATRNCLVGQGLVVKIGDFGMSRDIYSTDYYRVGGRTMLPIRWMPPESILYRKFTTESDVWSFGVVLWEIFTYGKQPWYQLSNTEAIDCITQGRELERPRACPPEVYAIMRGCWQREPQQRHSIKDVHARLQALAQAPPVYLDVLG
# assay_explanation: Ba/F3 cell proliferation assay, TPM3-TRKA
# test_context: 72 hours, CellTiter-Glo, read-out: TPM3-NTRK1-wt IC50
# Description: Genes encoding CD74-ROS1 wild-type (wt), CD74-ROS1 G2032R, CD74-ROS1 S1986F, CD74-ROS1 L2026M, CD74-ROS1 D2033N, EML4-ALK wt (variant 1), EML4-ALK G1202R (variant 1), EML4-ALK L1196M/G1202R (variant 1), EML4-ALK G1202R/G1269A (variant 1), EML4-ALK G1202R/L1198F (variant 1), and TPM3-TRKA were synthesized at GeneRay, cloned into the retroviral construct pMSCV-puro (Biovector), and packaged into retroviral particles. […] Luminescence was measured on a plate reader. […] (nd=not determined).
measured_metric: IC50

Inquiry: # lookup: IC50 of CCc1snc2c1-c1cnc(N)c(c1)O[C@H](C)c1cc(F)ccc1-c1nn(C)nc1C2 [Example 87]
Reply text: 50 to 500 nM

Inquiry: Next molecule up: CCn1ncc2c1-c1cnc(N)c(c1)O[C@H](C)c1cc(F)ccc1-c1nn(C)nc1C2 [Example 5]
Reply text: 50 to 500 nM

Inquiry: Next molecule up: C[C@H]1Oc2cc(cnc2N)-c2c(C#N)cnn2Cc2nccnc2-c2ccc(F)cc21 [Example 47]
Reply text: > 500 nM

Inquiry: Next molecule up: CCn1nnc2c1-c1cnc(N)c(c1)O[C@H](C)c1cc(F)ccc1-c1scnc1C2 [Example 53]
Reply text: > 500 nM

Inquiry: Next molecule up: C[C@H]1Oc2cc(cnc2N)-c2c(cnn2C2CCC2)Cn2ncnc2-c2ccc(F)cc21 [Example 39]
Reply text: > 500 nM

Inquiry: Next molecule up: Cc1nn(CC2CC2)c2c1Cn1nccc1-c1ccc(F)cc1[C@@H](C)Oc1cc-2cnc1N [Example 45]
Reply text: > 500 nM

Inquiry: Next molecule up: Cc1nn(CC2CC2)c2c1Cn1nc(Cl)cc1-c1ccc(F)cc1[C@@H](C)Oc1cc-2cnc1N [Example 81]
Reply text: > 500 nM

Inquiry: Next molecule up: CCc1noc2c1-c1cnc(N)c(c1)O[C@H](C)c1cc(F)ccc1-c1nnnn1C2 [Example 58]
Reply text: 50 to 500 nM

Inquiry: Next molecule up: C[C@H]1Oc2cc(cnc2N)-c2c(cnn2C2CCC2)Cc2ncnn2-c2ccc(F)cc21 [Example 41]
Reply text: > 500 nM

Inquiry: Next molecule up: CCc1noc2c1-c1cnc(N)c(c1)O[C@H](C)c1cc(F)ccc1-c1cn(C)nc1C2 [Example 23]
Reply text: 50 to 500 nM

Inquiry: Next molecule up: CCn1ncc2c1-c1cnc(N)c(c1)O[C@H](C)c1cc(F)ccc1-c1ncn(C)c1C2 [Example 6]
Reply text: 50 to 500 nM

Inquiry: Next molecule up: Cc1nn(CC2CC2)c2c1Cc1nccnc1-c1ccc(F)cc1[C@@H](C)Oc1cc-2cnc1N [Example 77]
Reply text: > 500 nM

Inquiry: Next molecule up: CCn1ncc2c1-c1cnc(N)c(c1)O[C@H](C)c1cc(F)ccc1-c1cnnn1C2 [Example 2]
Reply text: > 500 nM

Inquiry: Next molecule up: C[C@H]1Oc2cc(cnc2N)-c2c(C3CCC3)noc2Cc2nn(C)nc2-c2ccc(F)cc21 [Example 26]
Reply text: 50 to 500 nM

Inquiry: Next molecule up: CCn1ncc2c1-c1cnc(N)c(c1)O[C@H](C)c1cc(F)ccc1-c1cc(C)nn1C2 [Example 4]
Reply text: 50 to 500 nM

Inquiry: Next molecule up: CCn1nc2c(n1)-c1ccc(F)cc1[C@@H](C)Oc1cc(cnc1N)-c1c(cnn1CC)C2 [Example 88]
Reply text: 50 to 500 nM
